These measurements were taken from patent US20220073554A1.

MIC values for the compounds below.
Tested on: E. faecalis ATCC 29212
assayDetails: MIC against E. faecalis ATCC 29212
Format: cell-based
conditionParameters: Enterococcus faecalis, ATCC29212

-- ask Sample CSC1O[C@H]([C@H](NC(=O)[C@H]2NC[C@@H]3CC(c4ccc(-c5ccccc5)cc4)=CCO[C@H]32)[C@H](C)Cl)C(O)[C@@H](O)[C@H]1O (some centres unmarked) [FSA-510001] — what was its MIC?
-- reply 8 µg/mL

-- ask Another compound to check: CSC1O[C@H]([C@H](NC(=O)[C@H]2NC[C@@H]3C=C(c4ccccc4)CCO[C@@H]23)[C@H](C)Cl)C(O)[C@@H](O)[C@H]1O (some centres unmarked) [FSA-507031]
-- reply > 32 µg/mL

-- ask Another compound to check: C[C@@H](O)[C@@H](NC(=O)[C@H]1NC[C@@H]2CC=CCO[C@H]21)[C@H]1OC(CN=[N+]=[N-])[C@H](O)[C@H](O)C1O (some centres unmarked) [FSA-211064]
-- reply > 64 µg/mL

-- ask Another compound to check: CSC1O[C@H]([C@H](NC(=O)[C@H]2NC[C@@H]3CC(NCc4ccc(F)cc4)CCO[C@H]32)[C@H](C)Cl)C(O)[C@@H](O)[C@H]1O (some centres unmarked) [FSA-510074]
-- reply > 64 µg/mL

-- ask Another compound to check: CSC1O[C@H]([C@H](NC(=O)[C@H]2NC[C@@H]3CC(NCc4cccc(F)c4)CCO[C@H]32)[C@H](C)Cl)C(O)[C@@H](O)[C@H]1O (some centres unmarked) [FSA-510073]
-- reply > 64 µg/mL

More entries:
-- ask Sample Cc1ccc(S(=O)(=O)OCC2O[C@H]([C@H](NC(=O)[C@H]3NC[C@@H]4CC=CCO[C@H]43)[C@@H](C)O)C(O)[C@@H](O)[C@H]2O)cc1 (some centres unmarked) [FSA-211030] — what was its MIC?
-- reply > 64 µg/mL

-- ask Another compound to check: CSC1O[C@H]([C@H](NC(=O)[C@H]2NC[C@H]3CC=CCO[C@H]32)[C@H](C)Cl)C(O)[C@@H](O)[C@H]1O (some centres unmarked) [FSA-507051]
-- reply > 32 µg/mL

-- ask Another compound to check: CNC1CCO[C@@H]2[C@H](CN[C@@H]2C(=O)N[C@H]([C@H](C)Cl)[C@H]2OC(SC)[C@H](O)[C@H](O)C2O)C1 (some centres unmarked) [FSA-510065]
-- reply > 64 µg/mL

-- ask Another compound to check: CSC1O[C@H]([C@H](NC(=O)[C@H]2NC[C@@H]3CC(N)CCO[C@H]32)[C@H](C)Cl)C(O)[C@@H](O)[C@H]1O (some centres unmarked) [FSA-510012]
-- reply > 64 µg/mL

-- ask Another compound to check: CSC1O[C@H]([C@H](NC(=O)[C@H]2NC[C@@H]3CC=CCO[C@H]32)[C@H](C)Cl)C(O)[C@@H](O)[C@H]1O (some centres unmarked) [FSA-24035]
-- reply 16 µg/mL

-- ask Another compound to check: CSC1O[C@H]([C@H](NC(=O)[C@H]2NC[C@@H]3C[C@@H](O)[C@@H](O)CO[C@H]32)[C@H](C)Cl)C(O)[C@@H](O)[C@H]1O (some centres unmarked) [FSA-501076]
-- reply > 64 µg/mL
